Property: melting point; scope: individual compounds
readoutLabel: melting point

- compound: "CS(=O)(=O)N1CCN(Cc2cc(Cl)c(CC(=O)N3CCN(c4ccc(C(=O)Nc5cccc(N6CCCC6)c5)cc4)CC3)c(Cl)c2)CC1"
  readoutLabel: "melting point"
  recordedValue: "240 to 242 °C"
- compound: "COc1ccc(CC(=O)Nc2ccc(N3CCN(C(=O)Cc4ccc(CN5CCCC5)cc4Cl)CC3)cc2)cc1"
  readoutLabel: "melting point"
  recordedValue: "153.3 to 155.2 °C"
- compound: "COc1cc(CNC(=O)c2ccc(N3CCN(C(=O)Cc4c(Cl)cc(CN5CCN(C(C)=O)CC5)cc4Cl)CC3)cc2)cc(OC)c1"
  readoutLabel: "melting point"
  recordedValue: "123 to 126 °C"
- compound: "O=C(Nc1cccc(N2CCCC2)c1)c1ccc(N2CCN(C(=O)C(O)c3ccc(CN4CCCC4)cc3Cl)CC2)cc1 (stereo not shown)"
  readoutLabel: "melting point"
  recordedValue: "138.7 to 140.9 °C"

---

- experimentalSystem: human DGAT1 (Homo sapiens)
- Construct: FLAG (N); made in house; host or cells: SF9 insect cells (pFastBac / baculovirus); total cell membranes
- Sequence (O75907 1-488): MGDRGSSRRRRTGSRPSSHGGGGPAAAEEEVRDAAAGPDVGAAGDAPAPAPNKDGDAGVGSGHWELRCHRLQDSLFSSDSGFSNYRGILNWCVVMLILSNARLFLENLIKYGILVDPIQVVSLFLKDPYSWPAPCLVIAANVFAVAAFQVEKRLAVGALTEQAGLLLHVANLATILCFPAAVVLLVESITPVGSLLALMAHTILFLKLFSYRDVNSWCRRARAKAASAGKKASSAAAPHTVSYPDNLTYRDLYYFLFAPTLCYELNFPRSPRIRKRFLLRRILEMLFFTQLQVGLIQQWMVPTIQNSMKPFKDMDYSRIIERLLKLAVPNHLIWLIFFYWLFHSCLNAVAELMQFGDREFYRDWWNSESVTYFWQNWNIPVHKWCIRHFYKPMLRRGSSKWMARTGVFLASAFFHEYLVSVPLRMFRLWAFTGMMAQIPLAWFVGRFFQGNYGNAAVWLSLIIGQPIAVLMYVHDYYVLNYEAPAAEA
- assayName: DGAT1 FlashPlate assay: inhibition of DGAT1 activity in membrane preparations
- Type: biochemical
- experimentalContext: human DGAT1 membranes from SF9 cells, [3H]-oleoylCoA, 120 min at 37° C.; read-out: pIC50 (-logIC50, 50% inhibition of DGAT1 activity) (converted)
Below, each entry is listed alongside its reported IC50.
readoutLabel: IC50

- molecule: "CS(=O)(=O)N1CCN(Cc2cc(Cl)c(CC(=O)N3CCN(c4ccc(C(=O)NCc5cccc(N6CCCC6)c5)cc4)CC3)c(Cl)c2)CC1 [363-Class D]"
  recordedValue: "11.5 nM"
- molecule: "O=C(NCc1cccc(N2CCCC2)c1)c1ccc(N2CCN(C(=O)C(O)c3ccc(CN4CCCC4)cc3Cl)CC2)cc1 (stereo not drawn) [356-Class D]"
  recordedValue: "74.1 nM"
- molecule: "CCN1CCN(Cc2cc(Cl)c(CC(=O)N3CCN(c4ccc(C(=O)Nc5cccc(N6CCCC6)c5)cc4)CC3)c(Cl)c2)CC1 [148-Class C]"
  recordedValue: "9.12 nM"

---

readoutLabel: melting point

- molecule: "CCN1CCN(Cc2cc(Cl)c(CC(=O)N3CCN(c4ccc(C(=O)Nc5cccc(N6CCCC6)c5)cc4)CC3)c(Cl)c2)CC1"
  recordedValue: "180 to 182 °C"
- molecule: "CCN1CCN(Cc2cc(Cl)c(CC(=O)N3CCN(c4ccc(C(=O)NCc5cccc(N6CCCC6)c5)cc4)CC3)c(Cl)c2)CC1"
  recordedValue: "240 to 241 °C"
- molecule: "O=C(Nc1cccc(N2CCCC2)c1)c1ccc(N2CCN(C(=O)Cc3ccc(CN4CCCC4)cc3Cl)CC2)cc1"
  recordedValue: "224.1 to 225.4 °C"
- molecule: "COc1cc(CNC(=O)c2ccc(N3CCN(C(=O)Cc4c(Cl)cc(CN5CCCC5)cc4Cl)CC3)cc2)cc(OC)c1"
  recordedValue: "199 to 200 °C"
- molecule: "O=C(NCc1cccc(N2CCCC2)c1)c1ccc(N2CCN(C(=O)C(O)c3ccc(CN4CCCC4)cc3Cl)CC2)cc1 (stereo not shown)"
  recordedValue: "134.4 to 137 °C"
- molecule: "O=C(NCc1cccc(N2CCCC2)c1)c1ccc(N2CCN(C(=O)Cc3ccc(CN4CCCC4)cc3Cl)CC2)cc1"
  recordedValue: "206.3 to 209.4 °C"
- molecule: "CC(=O)N1CCN(Cc2cc(Cl)c(CC(=O)N3CCN(c4ccc(C(=O)NCc5cccc(N6CCCC6)c5)cc4)CC3)c(Cl)c2)CC1"
  recordedValue: "164 to 166 °C"

---

Listed compounds paired with reported melting point

- compound: "CC(=O)N1CCN(Cc2cc(Cl)c(CC(=O)N3CCN(c4ccc(C(=O)Nc5cccc(N6CCCC6)c5)cc4)CC3)c(Cl)c2)CC1 [149-Class C]"
  melting point: "250 to 252 °C"
- compound: "COc1cc(CNC(=O)c2ccc(N3CCN(C(=O)Cc4ccc(CN5CCCC5)cc4Cl)CC3)cc2)cc(OC)c1 [353-Class D]"
  melting point: "126.6 to 128.1 °C"
- compound: "O=C(Nc1cccc(N2CCCC2)c1)c1ccc(N2CCN(C(=O)Cc3c(Cl)cc(CN4CCCC4)cc3Cl)CC2)cc1 [147-Class C]"
  melting point: "262 to 263 °C"
- compound: "CS(=O)(=O)N1CCN(Cc2cc(Cl)c(CC(=O)N3CCN(c4ccc(C(=O)NCc5cccc(N6CCCC6)c5)cc4)CC3)c(Cl)c2)CC1 [363-Class D]"
  melting point: "241 to 243 °C"
- compound: "COc1cc(CNC(=O)c2ccc(N3CCN(C(=O)Cc4c(Cl)cc(CN5CCN(S(C)(=O)=O)CC5)cc4Cl)CC3)cc2)cc(OC)c1 [364-Class D]"
  melting point: "152 to 154 °C"
- compound: "CCN1CCN(Cc2cc(Cl)c(CC(=O)N3CCN(c4ccc(C(=O)NCc5cc(OC)cc(OC)c5)cc4)CC3)c(Cl)c2)CC1 [360-Class D]"
  melting point: "159 to 160 °C"

---

- experimentalSystem: human DGAT1 (Homo sapiens)
- Construct: FLAG (N); made in house; host or cells: SF9 insect cells (pFastBac / baculovirus); total cell membranes
- Sequence (O75907 1-488): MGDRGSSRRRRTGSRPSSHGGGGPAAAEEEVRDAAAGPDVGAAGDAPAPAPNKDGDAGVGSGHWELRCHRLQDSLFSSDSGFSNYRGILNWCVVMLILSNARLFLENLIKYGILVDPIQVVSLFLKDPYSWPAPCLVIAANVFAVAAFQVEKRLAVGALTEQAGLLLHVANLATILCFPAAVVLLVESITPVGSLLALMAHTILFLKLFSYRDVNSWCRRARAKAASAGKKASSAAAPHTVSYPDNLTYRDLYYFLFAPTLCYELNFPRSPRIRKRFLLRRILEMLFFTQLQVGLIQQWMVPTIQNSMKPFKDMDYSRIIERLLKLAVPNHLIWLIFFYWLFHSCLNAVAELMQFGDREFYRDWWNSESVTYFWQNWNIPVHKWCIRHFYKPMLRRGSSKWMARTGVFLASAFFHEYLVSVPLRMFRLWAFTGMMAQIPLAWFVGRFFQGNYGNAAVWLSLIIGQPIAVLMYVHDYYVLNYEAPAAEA
- assayName: DGAT1 FlashPlate assay: inhibition of DGAT1 activity in membrane preparations
- Format: biochemical
- experimentalContext: human DGAT1 membranes from SF9 cells, [3H]-oleoylCoA, 120 min at 37° C.; read-out: pIC50 (-logIC50, 50% inhibition of DGAT1 activity) (converted)
// reported IC50 for each item listed

- compound: "CC(=O)N1CCN(Cc2cc(Cl)c(CC(=O)N3CCN(c4ccc(C(=O)NCc5cccc(N6CCCC6)c5)cc4)CC3)c(Cl)c2)CC1"
  unitText: "µM"
  IC50: 0.0135
- compound: "COc1cc(CNC(=O)c2ccc(N3CCN(C(=O)C(O)c4ccc(CN5CCCC5)cc4Cl)CC3)cc2)cc(OC)c1 (centres unmarked)"
  unitText: "µM"
  IC50: 0.055
- compound: "CS(=O)(=O)N1CCN(Cc2cc(Cl)c(CC(=O)N3CCN(c4ccc(C(=O)Nc5cccc(N6CCCC6)c5)cc4)CC3)c(Cl)c2)CC1"
  unitText: "µM"
  IC50: 0.00603
- compound: "COc1cc(CNC(=O)c2ccc(N3CCN(C(=O)Cc4c(Cl)cc(CN5CCN(C(C)=O)CC5)cc4Cl)CC3)cc2)cc(OC)c1"
  unitText: "µM"
  IC50: 0.00912
- compound: "O=C(Nc1cccc(N2CCCC2)c1)c1ccc(N2CCN(C(=O)Cc3ccc(CN4CCCC4)cc3Cl)CC2)cc1"
  unitText: "µM"
  IC50: 0.316
- compound: "CCN1CCN(Cc2cc(Cl)c(CC(=O)N3CCN(c4ccc(C(=O)NCc5cc(OC)cc(OC)c5)cc4)CC3)c(Cl)c2)CC1"
  unitText: "µM"
  IC50: 0.00759
- compound: "CCN1CCN(Cc2cc(Cl)c(CC(=O)N3CCN(c4ccc(C(=O)NCc5cccc(N6CCCC6)c5)cc4)CC3)c(Cl)c2)CC1"
  unitText: "µM"
  IC50: 0.0282
- compound: "O=C(NCc1cccc(N2CCCC2)c1)c1ccc(N2CCN(C(=O)Cc3ccc(CN4CCCC4)cc3Cl)CC2)cc1"
  unitText: "µM"
  IC50: 0.646
- compound: "COc1cc(CNC(=O)c2ccc(N3CCN(C(=O)Cc4ccc(CN5CCCC5)cc4Cl)CC3)cc2)cc(OC)c1"
  unitText: "µM"
  IC50: 0.257
- compound: "CC(=O)N1CCN(Cc2cc(Cl)c(CC(=O)N3CCN(c4ccc(C(=O)Nc5cccc(N6CCCC6)c5)cc4)CC3)c(Cl)c2)CC1"
  unitText: "µM"
  IC50: 0.00617
- compound: "COc1cc(CNC(=O)c2ccc(N3CCN(C(=O)Cc4c(Cl)cc(CN5CCN(S(C)(=O)=O)CC5)cc4Cl)CC3)cc2)cc(OC)c1"
  unitText: "µM"
  IC50: 0.00575
